Biological target: Corticotropin-releasing factor receptor 1 (Homo sapiens)
Sequence (P34998 whole entry): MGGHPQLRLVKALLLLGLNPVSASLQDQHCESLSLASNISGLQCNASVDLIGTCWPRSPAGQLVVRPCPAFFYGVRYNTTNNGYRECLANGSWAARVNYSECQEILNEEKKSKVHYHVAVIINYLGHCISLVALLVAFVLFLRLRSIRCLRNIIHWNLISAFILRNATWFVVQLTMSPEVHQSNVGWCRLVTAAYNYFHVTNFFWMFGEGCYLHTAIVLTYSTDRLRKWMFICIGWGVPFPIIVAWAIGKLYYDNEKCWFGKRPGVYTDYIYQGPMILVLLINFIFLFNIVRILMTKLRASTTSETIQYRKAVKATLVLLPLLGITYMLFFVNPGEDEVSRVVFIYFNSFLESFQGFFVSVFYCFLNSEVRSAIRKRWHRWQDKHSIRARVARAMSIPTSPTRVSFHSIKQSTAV
Assay: Antagonist activity at human CRF1 receptor expressed in CHO-K1 cells assessed as CRF-stimulated cAMP accumulation by enzyme immunoassay
Assay type: functional, cell-based
Details: read-out: EC50 (the source's name)
Please provide measured IC50 for the entries that follow.
One number for each entry, in nM.

I need IC50 for every entry listed below, if you could help.
1. CCC(CC)c1cc(C)n2nc(-c3ccc(OC)cc3C)n(CC3CC3)c(=O)c12
2. CCC(CC)c1cc(C)n2nc(-c3cc(C)c(C)cc3C)c(C)cc12
3. CCC(CC)c1cc(C)n2nc(-c3ccc(OC)cc3Cl)n(CCO)c(=O)c12
4. CCC(CC)c1cc(C)n2nc(-c3ccc(OC)cc3Cl)n(C3CC3)c(=O)c12
5. CCC(C)c1cc(C)n2nc(-c3ccc(N(C)C)nc3C)n(C)c(=O)c12 (configuration not stated)

Output line:
5
3.3
3.5
1
36.5

I need IC50 for every entry listed below, if you could help.
1. CCOc1ccc(-c2nn3c(C)cc(C(CC)CC)c3cc2C)c(CC)c1
2. CCC(CC)c1cc(C)n2nc(-c3cnc(N(C)C)cc3C)c(C)cc12

Output line:
1. 6.9
2. 11.5

I need IC50 for every entry listed below, if you could help.
1. CCc1cc(OC)c(OC)cc1-c1nn2c(C)cc(C(CC)CC)c2cc1C
2. CCC(C)c1cc(C)n2nc(-c3ccc(OC)cc3C)n(C)c(=O)c12 (configuration not stated)
3. CCC(C)c1cc(C)n2nc(-c3c(C)cc(OC)cc3C)n(C)c(=O)c12 (configuration not stated)
4. CCC(CC)c1cc(C)n2nc(-c3ccc(OC)nc3C)n(C)c(=O)c12

Output line:
1: 1.9; 2: 2.4; 3: 3.5; 4: 1.1

Reported IC50 ( CCC(CC)c1cc(C)n2nc(-c3ccc(OC)cc3C)n(C(C)C)c(=O)c12 ) = 5.1

###

Biological target: Corticotropin-releasing factor receptor 1 (Rattus norvegicus)
Sequence (P35353 whole entry): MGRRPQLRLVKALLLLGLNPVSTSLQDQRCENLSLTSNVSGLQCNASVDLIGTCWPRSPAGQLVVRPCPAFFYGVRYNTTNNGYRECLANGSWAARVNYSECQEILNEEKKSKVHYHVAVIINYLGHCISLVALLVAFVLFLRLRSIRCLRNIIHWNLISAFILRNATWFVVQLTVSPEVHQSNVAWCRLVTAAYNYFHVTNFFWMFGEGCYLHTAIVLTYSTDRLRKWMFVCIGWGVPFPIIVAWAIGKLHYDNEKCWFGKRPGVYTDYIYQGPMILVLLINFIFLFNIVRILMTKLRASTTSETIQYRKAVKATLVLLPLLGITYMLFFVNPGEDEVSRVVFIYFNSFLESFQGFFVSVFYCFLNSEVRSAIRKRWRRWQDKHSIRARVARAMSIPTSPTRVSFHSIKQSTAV
Experiment: Antagonist activity at rat CRF1 receptor expressed in CHO-K1 cells assessed as CRF-stimulated cAMP accumulation by enzyme immunoassay
measurement-label: EC50 (nM)
One number for each entry, in nM.

Reported EC50 ( CCC(CC)c1cc(C)n2nc(-c3cnc(OC(F)F)cc3C)n(C)c(=O)c12 ) = 2.6

###

Please provide measured pIC50 for the entries that follow.
Target: Corticotropin-releasing factor receptor 1 (Homo sapiens)
Assay: Antagonist activity at human CRF1 receptor expressed in CHO-K1 cells assessed as CRF-stimulated cAMP accumulation by enzyme immunoassay
Format: functional, cell-based
Conditions: read-out: EC50 (the source's name)
Numbers only, as −log10 of the molar value.

Below: 3 molecules and their reported pIC50.
• CCC(CC)c1cc(C)n2nc(-c3ccc(OC)cc3C)n(CC)c(=O)c12 = 8.92
• CCC(CC)c1cc(C)n2nc(-c3ccc(OC)cc3Cl)n(CC)c(=O)c12 = 9.15
• CCC(CC)c1cc(C)n2nc(-c3ccc(OC)cc3C)c(C)cc12 = 8.31

I need pIC50 for every entry listed below, if you could help.
1. CCC(CC)c1cc(C)n2nc(-c3cnc(OC(F)F)cc3C)n(C)c(=O)c12
2. CCC(CC)c1cc(C)n2nc(-c3ccc(OC)cc3Cl)[nH]c(=O)c12
3. CCC(CC)c1cc(C)n2nc(-c3ccc(C)cc3C)c(C)cc12
4. CCC(CC)c1cc(C)n2nc(-c3c(C)cc(OC)cc3C)n(C)c(=O)c12
5. CCC(CC)c1cc(C)n2nc(-c3ccc(OC)cc3C)n(C)c(=O)c12
6. CCC(CC)c1cc(C)n2nc(-c3cc4c(cc3C)OCO4)c(C)cc12
7. CCC(CC)c1cc(C)n2nc(-c3ccc(OC)cc3C)n(CCO)c(=O)c12
8. CCC(CC)c1cc(C)n2nc(-c3ccc(OC)cc3Cl)n(C)c(=O)c12

Output line:
1: 8.49; 2: 8.40; 3: 8.74; 4: 9.22; 5: 8.77; 6: 8.60; 7: 8.38; 8: 8.92

I need pIC50 for every entry listed below, if you could help.
1. CCC(CC)c1cc(C)n2nc(-c3ccc(N(C)C)nc3C)n(C)c(=O)c12
2. CCC(CC)c1cc(C)n2nc(-c3ccc(OC)cc3C)[nH]c(=O)c12
3. CCC(CC)c1cc(C)n2nc(-c3ccc(OC(F)F)nc3C)n(C)c(=O)c12
4. CCC(CC)c1nc(C)n2nc(-c3ccc(OC)cc3C)c(C)cc12
5. COc1cc(C)c(-c2nn3c(C)cc(C(C)C)c3c(=O)n2C)c(C)c1
6. CCC(CC)c1cc(C)n2nc(-c3ccc(OC)cc3C)n(CC(C)C)c(=O)c12
7. COc1ccc(-c2nn3c(C)cc(C(C)C)c3c(=O)n2C)c(Cl)c1

Output line:
1. 8.26
2. 6.16
3. 9.52
4. 6.25
5. 8.35
6. 7.33
7. 8.13

I need pIC50 for every entry listed below, if you could help.
1. CCC(CC)c1cc(C)n2nc(-c3cnc(OC)cc3C)n(C)c(=O)c12
2. CCC(C)c1cc(C)n2nc(-c3ccc(OC)cc3Cl)n(C)c(=O)c12 (stereo unspecified)
3. CCC(CC)c1cc(C)n2nc(-c3ccc(OC)cc3C)n(C3CC3)c(=O)c12

Output line:
1. 7.76
2. 8.96
3. 8.43

###

Target: Corticotropin-releasing factor receptor 1 (Homo sapiens)
Test: Displacement of [125I]CRF from human CRF1 receptor expressed in CHO-K1 cells after 2 hrs by gamma counter
Format: cell-based
Please provide measured pIC50 for the entries that follow.
Give bare numbers, as −log10 of the molar value.

Below: 4 molecules and their reported pIC50.
• CCC(CC)c1cc(C)n2nc(-c3ccc(OC)cc3Cl)n(C3CC3)c(=O)c12 = 8.23
• CCC(CC)c1cc(C)n2nc(-c3ccc(OC)cc3Cl)n(CC)c(=O)c12 = 8.34
• CCC(CC)c1cc(C)n2nc(-c3cnc(N(C)C)cc3C)c(C)cc12 = 8.13
• CCC(CC)c1cc(C)n2nc(-c3ccc(C)cc3C)c(C)cc12 = 7.94

Reported pIC50 ( CCC(CC)c1cc(C)n2nc(-c3cnc(OC)cc3C)n(C)c(=O)c12 ) = 8.07

###

Assay: Volume of distribution at steady state in rat at 1 mg/kg, iv
Type: ADME, organism-based
Design: dose 1 mg/kg, route intravenous
Settings: in vivo, read-out: Vdss
measurement-label: Vd (L/kg)
Numbers only, in L/kg.

Reported Vd ( CCC(CC)c1cc(C)n2nc(-c3cnc(OC(F)F)cc3C)n(C)c(=O)c12 ) = 2.95

###

Assay: Oral bioavailability in rat at 1 mg/kg
Format: ADME, organism-based
Conditions: in vivo
measurement-label: bioavailability (%)
Numbers only, in %.

Reported bioavailability ( CCC(CC)c1cc(C)n2nc(-c3cnc(OC(F)F)cc3C)n(C)c(=O)c12 ) = 13.5

###

Assay: Tmax in rat at 1 mg/kg, po
Assay type: ADME, organism-based
Design: dose 1 mg/kg, route oral
Conditions: in vivo
measurement-label: Tmax (h)
One number for each entry, in h.

Reported Tmax ( CCC(CC)c1cc(C)n2nc(-c3cnc(OC(F)F)cc3C)n(C)c(=O)c12 ) = 1

###

Molecular target: Corticotropin-releasing factor receptor 1 (Rattus norvegicus)
Sequence (P35353 whole entry): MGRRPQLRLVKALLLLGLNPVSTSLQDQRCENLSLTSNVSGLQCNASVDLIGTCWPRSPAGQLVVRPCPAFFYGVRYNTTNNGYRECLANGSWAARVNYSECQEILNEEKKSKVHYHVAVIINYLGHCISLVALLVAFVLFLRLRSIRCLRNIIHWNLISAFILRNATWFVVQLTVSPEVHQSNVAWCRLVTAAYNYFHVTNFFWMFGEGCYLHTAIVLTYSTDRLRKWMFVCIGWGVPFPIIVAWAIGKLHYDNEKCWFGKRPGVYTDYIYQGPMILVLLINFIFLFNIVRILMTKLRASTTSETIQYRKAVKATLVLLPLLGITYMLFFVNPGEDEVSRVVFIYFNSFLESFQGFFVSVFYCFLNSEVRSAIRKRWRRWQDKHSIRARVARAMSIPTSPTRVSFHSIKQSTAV
Test: Displacement of [125I]CRF from rat CRF1 receptor expressed in CHO-K1 cells after 2 hrs by gamma counter
Details: in the assay text read “in brain membranes” for “expressed in CHO-K1 cells”
measurement-label: IC50 (nM)
Give bare numbers, in nM.

Reported IC50 ( CCC(CC)c1cc(C)n2nc(-c3cnc(OC(F)F)cc3C)n(C)c(=O)c12 ) = 8.4
